# REPORTED CONDITIONS: in ethyl acetate, 293.15 K
ENDPOINT: solubility (mole fraction)
No unit in the answer, please; the number alone is enough.

Give its solubility (mole fraction) value. Item: Cc1ccc(S(C)(=O)=O)cc1 0.103

* * *

# REPORTED CONDITIONS: in methanol, 288.15 K
ENDPOINT: solubility (mole fraction)
No unit in the answer, only the number.

Could you tell me which solubility (mole fraction) is on file for Cc1ccc(S(C)(=O)=O)cc1 ? 0.0207

* * *

# REPORTED CONDITIONS: in n-butanol, 298.15 K
ENDPOINT: solubility (mole fraction)
// print number alone

Please report the recorded solubility (mole fraction) for Cc1ccc(S(C)(=O)=O)cc1 . 0.0178

* * *

# REPORTED CONDITIONS: in ethanol, 298.15 K
ENDPOINT: solubility (mole fraction)
Output: the number by itself.

I'd like to know its solubility (mole fraction). The compound in question is Cc1ccc(S(C)(=O)=O)cc1 0.0241

* * *

# REPORTED CONDITIONS: in acetonitrile, 313.15 K
ENDPOINT: solubility (mole fraction)

Given the entry Cc1ccc(S(C)(=O)=O)cc1 , report its measured solubility (mole fraction). 0.3

* * *

# REPORTED CONDITIONS: in n-butanol, 283.15 K
ENDPOINT: solubility (mole fraction)
Returns: the value as a bare number; no unit string appended.

GET /values?readout=solubility (mole fraction)&item= Cc1ccc(S(C)(=O)=O)cc1 0.00599

* * *

# REPORTED CONDITIONS: in acetone, 298.15 K
ENDPOINT: solubility (mole fraction)
Give a plain numeric answer without units written out.

Form field: reported solubility (mole fraction) of Cc1ccc(S(C)(=O)=O)cc1 0.199

* * *

# REPORTED CONDITIONS: in DMF, 298.15 K
ENDPOINT: solubility (mole fraction)
Lab note: record just the number, no unit beside it.

Suppose we examine the compound Cc1ccc(S(C)(=O)=O)cc1 ; what solubility (mole fraction) value has been reported? 0.244

* * *

# REPORTED CONDITIONS: in methanol, 318.15 K
ENDPOINT: solubility (mole fraction)
The answer should be a number; do not append a unit.

What solubility (mole fraction) value was documented for this compound, Cc1ccc(S(C)(=O)=O)cc1 ? 0.111

* * *

# REPORTED CONDITIONS: in isopropanol, 283.15 K
ENDPOINT: solubility (mole fraction)
Answer using only a numeral; do not append any unit.

Give the measured solubility (mole fraction) of Cc1ccc(S(C)(=O)=O)cc1 . 0.00579

* * *

# REPORTED CONDITIONS: in DMF, 288.15 K
ENDPOINT: solubility (mole fraction)

Report solubility (mole fraction) for Cc1ccc(S(C)(=O)=O)cc1 please. 0.177

* * *

# REPORTED CONDITIONS: in methanol, 283.15 K
ENDPOINT: solubility (mole fraction)
// print number alone

Field request: solubility (mole fraction) | item: Cc1ccc(S(C)(=O)=O)cc1 0.0153

* * *

# REPORTED CONDITIONS: in n-butanol, 278.15 K
ENDPOINT: solubility (mole fraction)
A bare number is all that is needed in reply.

Suppose we examine the molecule Cc1ccc(S(C)(=O)=O)cc1 ; what solubility (mole fraction) value has been reported? 0.00408

* * *

# REPORTED CONDITIONS: in isopropanol, 313.15 K
ENDPOINT: solubility (mole fraction)
Output: the number by itself.

solubility (mole fraction) lookup needed for Cc1ccc(S(C)(=O)=O)cc1 , thanks. 0.0367

* * *

# REPORTED CONDITIONS: in acetone, 283.15 K
ENDPOINT: solubility (mole fraction)

Endpoint output: solubility (mole fraction) of Cc1ccc(S(C)(=O)=O)cc1 . Value? 0.118

* * *

# REPORTED CONDITIONS: in n-propanol, 313.15 K
ENDPOINT: solubility (mole fraction)
// return a plain number; no unit text

Can you look up the measured solubility (mole fraction) of Cc1ccc(S(C)(=O)=O)cc1 for me? 0.052

* * *

# REPORTED CONDITIONS: in acetone, 293.15 K
ENDPOINT: solubility (mole fraction)
The reply should be a number, written without any unit.

Which measured solubility (mole fraction) value corresponds to Cc1ccc(S(C)(=O)=O)cc1 ? 0.172

* * *

# REPORTED CONDITIONS: in acetonitrile, 278.15 K
ENDPOINT: solubility (mole fraction)
Just the number, please, no unit attached.

Requested read-out: solubility (mole fraction). Entry: Cc1ccc(S(C)(=O)=O)cc1 0.084

* * *

# REPORTED CONDITIONS: in n-propanol, 318.15 K
ENDPOINT: solubility (mole fraction)

If you can, please state the reported solubility (mole fraction) value of Cc1ccc(S(C)(=O)=O)cc1 . 0.069

* * *

# REPORTED CONDITIONS: in n-propanol, 298.15 K
ENDPOINT: solubility (mole fraction)
Could you respond with only the numeric value?

Please look up its solubility (mole fraction): Cc1ccc(S(C)(=O)=O)cc1 0.022

* * *

# REPORTED CONDITIONS: in isopropanol, 303.15 K
ENDPOINT: solubility (mole fraction)
Just the number, please.

Form field: reported solubility (mole fraction) of Cc1ccc(S(C)(=O)=O)cc1 0.0203

* * *

# REPORTED CONDITIONS: in n-butanol, 308.15 K
ENDPOINT: solubility (mole fraction)
Keep it simple and answer with nothing but the number.

I would be grateful if you could share the reported solubility (mole fraction) for Cc1ccc(S(C)(=O)=O)cc1 . 0.0353

* * *

# REPORTED CONDITIONS: in acetonitrile, 318.15 K
ENDPOINT: solubility (mole fraction)

Give its solubility (mole fraction) value. Item: Cc1ccc(S(C)(=O)=O)cc1 0.359

* * *

# REPORTED CONDITIONS: in isopropanol, 288.15 K
ENDPOINT: solubility (mole fraction)
Answer using only a numeral; do not append any unit.

Recorded solubility (mole fraction) for Cc1ccc(S(C)(=O)=O)cc1 , please? 0.008

* * *

# REPORTED CONDITIONS: in acetonitrile, 308.15 K
ENDPOINT: solubility (mole fraction)
Reply with just the number.

What solubility (mole fraction) value was documented for this compound, Cc1ccc(S(C)(=O)=O)cc1 ? 0.258

* * *

# REPORTED CONDITIONS: in acetonitrile, 303.15 K
ENDPOINT: solubility (mole fraction)
# print the numeric value only

I am curious: what solubility (mole fraction) value has been reported for Cc1ccc(S(C)(=O)=O)cc1 ? 0.218

* * *

# REPORTED CONDITIONS: in acetonitrile, 283.15 K
ENDPOINT: solubility (mole fraction)

Could you tell me which solubility (mole fraction) is on file for Cc1ccc(S(C)(=O)=O)cc1 ? 0.102

* * *

# REPORTED CONDITIONS: in isopropanol, 278.15 K
ENDPOINT: solubility (mole fraction)
Reply with the value as a number alone.

Endpoint output: solubility (mole fraction) of Cc1ccc(S(C)(=O)=O)cc1 . Value? 0.00415

* * *

# REPORTED CONDITIONS: in acetonitrile, 288.15 K
ENDPOINT: solubility (mole fraction)

Which value of solubility (mole fraction) has been reported for Cc1ccc(S(C)(=O)=O)cc1 in the records? 0.13

* * *

# REPORTED CONDITIONS: in n-butanol, 313.15 K
ENDPOINT: solubility (mole fraction)
Please give the numeric answer without any surrounding text.

Endpoint output: solubility (mole fraction) of Cc1ccc(S(C)(=O)=O)cc1 . Value? 0.0492

* * *

# REPORTED CONDITIONS: in ethyl acetate, 303.15 K
ENDPOINT: solubility (mole fraction)

Request the reported solubility (mole fraction) associated with Cc1ccc(S(C)(=O)=O)cc1 0.144

* * *

# REPORTED CONDITIONS: in acetone, 303.15 K
ENDPOINT: solubility (mole fraction)
Just the number.

Would you kindly share the measured solubility (mole fraction) for Cc1ccc(S(C)(=O)=O)cc1 ? 0.234

* * *

# REPORTED CONDITIONS: in DMF, 278.15 K
ENDPOINT: solubility (mole fraction)
Note: the reply should be a number with no unit written.

If you can, please state the reported solubility (mole fraction) value of Cc1ccc(S(C)(=O)=O)cc1 . 0.123

* * *

# REPORTED CONDITIONS: in acetone, 308.15 K
ENDPOINT: solubility (mole fraction)
When you answer, write just the number.

Request the reported solubility (mole fraction) associated with Cc1ccc(S(C)(=O)=O)cc1 0.274

* * *

# REPORTED CONDITIONS: in ethanol, 278.15 K
ENDPOINT: solubility (mole fraction)
Answer with the value's number alone.

Return reported solubility (mole fraction); argument: Cc1ccc(S(C)(=O)=O)cc1 0.00721

* * *

# REPORTED CONDITIONS: in isopropanol, 318.15 K
ENDPOINT: solubility (mole fraction)
Just the number, please, no unit after it.

Quick one: solubility (mole fraction) of Cc1ccc(S(C)(=O)=O)cc1 ? 0.0491

Source: BigSolDB 2.1
